Reference source: patent US20210301025A1

target: EGFR (form used in the assay not stated) (human, UniProt P00533 25-645, limits assumed); test: ELISA, NEM conjugate, 10 nM
measured-endpoint: binding relative to P54AR4-83v2 parent
Please append the unit to your numeric answer.

In the examples that follow, each entry is paired with its recorded binding relative to P54AR4-83v2 parent.
| binder | binding relative to P54AR4-83v2 parent |
| --- | --- |
| P54AR4-83v2 S89C, NEM conjugate (designed binder, not shown: small tags and cut ends, N-ethyl maleimide (NEM) on Cys 89) LPAPKNLVVSEVTEDSARLSWDDPWAFYESFLIQYQESEKVGEAIVLTVPGSERSYDLTGLKPGTEYTVSIYGVHNVYKDTNMRGLPLCAIFTT | 0.97 ratio |
| P54AR4-83v2 V41C, NEM conjugate (designed binder, not shown: small tags and cut ends, N-ethyl maleimide (NEM) on Cys 41) LPAPKNLVVSEVTEDSARLSWDDPWAFYESFLIQYQESEKCGEAIVLTVPGSERSYDLTGLKPGTEYTVSIYGVHNVYKDTNMRGLPLSAIFTT | 0.92 ratio |
| P54AR4-83v2 L7C, NEM conjugate (designed binder, not shown: small tags and cut ends, N-ethyl maleimide (NEM) on Cys 7) LPAPKNCVVSEVTEDSARLSWDDPWAFYESFLIQYQESEKVGEAIVLTVPGSERSYDLTGLKPGTEYTVSIYGVHNVYKDTNMRGLPLSAIFTT | 0.35 ratio |
| P54AR4-83v2 V77C, NEM conjugate (designed binder, not shown: small tags and cut ends, N-ethyl maleimide (NEM) on Cys 77) LPAPKNLVVSEVTEDSARLSWDDPWAFYESFLIQYQESEKVGEAIVLTVPGSERSYDLTGLKPGTEYTVSIYGVHNCYKDTNMRGLPLSAIFTT | 0.03 ratio |
| P54AR4-83v2 I45C, NEM conjugate (designed binder, not shown: small tags and cut ends, N-ethyl maleimide (NEM) on Cys 45) LPAPKNLVVSEVTEDSARLSWDDPWAFYESFLIQYQESEKVGEACVLTVPGSERSYDLTGLKPGTEYTVSIYGVHNVYKDTNMRGLPLSAIFTT | 0.91 ratio |

Batch lookup, binding relative to P54AR4-83v2 parent per entry.
1. P54AR4-83v2 V46C, NEM conjugate (designed binder, not shown: small tags and cut ends, N-ethyl maleimide (NEM) on Cys 46) LPAPKNLVVSEVTEDSARLSWDDPWAFYESFLIQYQESEKVGEAICLTVPGSERSYDLTGLKPGTEYTVSIYGVHNVYKDTNMRGLPLSAIFTT
2. P54AR4-83v2 A3C, NEM conjugate (designed binder, not shown: small tags and cut ends, N-ethyl maleimide (NEM) on Cys 3) LPCPKNLVVSEVTEDSARLSWDDPWAFYESFLIQYQESEKVGEAIVLTVPGSERSYDLTGLKPGTEYTVSIYGVHNVYKDTNMRGLPLSAIFTT
3. P54AR4-83v2 Y78C, NEM conjugate (designed binder, not shown: small tags and cut ends, N-ethyl maleimide (NEM) on Cys 78) LPAPKNLVVSEVTEDSARLSWDDPWAFYESFLIQYQESEKVGEAIVLTVPGSERSYDLTGLKPGTEYTVSIYGVHNVCKDTNMRGLPLSAIFTT
4. P54AR4-83v2 V12C, NEM conjugate (designed binder, not shown: small tags and cut ends, N-ethyl maleimide (NEM) on Cys 12) LPAPKNLVVSECTEDSARLSWDDPWAFYESFLIQYQESEKVGEAIVLTVPGSERSYDLTGLKPGTEYTVSIYGVHNVYKDTNMRGLPLSAIFTT
5. P54AR4-83v2 F31C, NEM conjugate (designed binder, not shown: small tags and cut ends, N-ethyl maleimide (NEM) on Cys 31) LPAPKNLVVSEVTEDSARLSWDDPWAFYESCLIQYQESEKVGEAIVLTVPGSERSYDLTGLKPGTEYTVSIYGVHNVYKDTNMRGLPLSAIFTT
6. P54AR4-83v2 N76C, NEM conjugate (designed binder, not shown: small tags and cut ends, N-ethyl maleimide (NEM) on Cys 76) LPAPKNLVVSEVTEDSARLSWDDPWAFYESFLIQYQESEKVGEAIVLTVPGSERSYDLTGLKPGTEYTVSIYGVHCVYKDTNMRGLPLSAIFTT
7. P54AR4-83v2 D22C, NEM conjugate (designed binder, not shown: small tags and cut ends, N-ethyl maleimide (NEM) on Cys 22) LPAPKNLVVSEVTEDSARLSWCDPWAFYESFLIQYQESEKVGEAIVLTVPGSERSYDLTGLKPGTEYTVSIYGVHNVYKDTNMRGLPLSAIFTT
8. P54AR4-83v2 S38C, NEM conjugate (designed binder, not shown: small tags and cut ends, N-ethyl maleimide (NEM) on Cys 38) LPAPKNLVVSEVTEDSARLSWDDPWAFYESFLIQYQECEKVGEAIVLTVPGSERSYDLTGLKPGTEYTVSIYGVHNVYKDTNMRGLPLSAIFTT

["0.61 ratio", "0.34 ratio", "0.31 ratio", "0.87 ratio", "0.04 ratio", "0.75 ratio", "0.84 ratio", "0.8 ratio"]
